Item-by-item account of EC50
SYSTEM UNDER TEST: human farnesoid X receptor (Homo sapiens)
Construct: CMX-farnesoid X receptor (full length human farnesoid X receptor); expressed in transfected cells; host or cells: CV-1 African Green Monkey Kidney cells
Sequence (Q96RI1 1-472 isoform Q96RI1-2): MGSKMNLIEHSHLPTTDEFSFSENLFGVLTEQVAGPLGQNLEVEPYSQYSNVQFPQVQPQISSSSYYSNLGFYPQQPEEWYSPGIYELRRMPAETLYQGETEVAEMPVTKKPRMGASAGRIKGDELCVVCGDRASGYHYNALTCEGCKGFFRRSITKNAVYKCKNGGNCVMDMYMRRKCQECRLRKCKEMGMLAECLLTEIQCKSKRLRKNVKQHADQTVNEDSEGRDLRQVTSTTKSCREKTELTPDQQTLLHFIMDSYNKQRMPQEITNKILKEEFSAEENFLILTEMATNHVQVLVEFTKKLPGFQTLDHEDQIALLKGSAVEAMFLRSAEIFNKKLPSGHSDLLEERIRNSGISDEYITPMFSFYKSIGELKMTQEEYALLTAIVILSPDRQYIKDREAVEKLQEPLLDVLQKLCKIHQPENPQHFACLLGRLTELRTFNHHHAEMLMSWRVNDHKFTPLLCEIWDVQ
Sequence (P19793 1-462 partner): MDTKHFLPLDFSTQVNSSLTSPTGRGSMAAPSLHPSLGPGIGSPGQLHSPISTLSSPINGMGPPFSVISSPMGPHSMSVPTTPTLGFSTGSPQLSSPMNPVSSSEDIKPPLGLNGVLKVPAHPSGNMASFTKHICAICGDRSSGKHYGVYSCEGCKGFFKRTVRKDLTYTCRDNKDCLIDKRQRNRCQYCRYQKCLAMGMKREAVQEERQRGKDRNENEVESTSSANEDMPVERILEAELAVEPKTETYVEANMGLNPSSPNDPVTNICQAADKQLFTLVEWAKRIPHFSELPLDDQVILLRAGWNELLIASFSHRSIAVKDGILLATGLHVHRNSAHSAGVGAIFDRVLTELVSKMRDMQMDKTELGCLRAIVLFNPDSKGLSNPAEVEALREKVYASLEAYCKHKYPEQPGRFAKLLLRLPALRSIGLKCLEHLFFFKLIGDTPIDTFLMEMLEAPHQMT
ASSAY DETAILS: FXR in vitro assays (farnesoid X receptor/ECREx7 co-transfection assay, TR-FRET assay), Table I
Format: cell-based
CONDITION INFO: agonist activity, one or more of the in vitro assays; read-out: EC50

>  <COMPOUND>
CC(=O)N1CCN(Cc2cccc(C(=O)N3C=C(C(=O)OC(C)C)c4[nH]c5ccccc5c4C(C)(C)C3)c2)CC1

>  <EC50>
100 to 1000 nM

$$$$
>  <COMPOUND>
CC(C)OC(=O)C1=CN(C(=O)N2CCCC(CN(C)C)C2)CC(C)(C)c2c1[nH]c1ccccc21 (stereo not drawn)

>  <EC50>
1000 to 10000 nM

$$$$
>  <COMPOUND>
CC(C)OC(=O)C1=CN(C(=O)c2cccc(CN3CCN(C(=O)C(C)C)CC3)c2)CC(C)(C)c2c1[nH]c1ccccc21

>  <EC50>
100 to 1000 nM

$$$$
